Value source: the supplement of paper PMC12764529

Experiment: folding stability dG unfold from trypsin proteolysis; higher = more stable
outcome_measure: folding stability dG unfold (kcal/mol)
Quick note: give the figure in kcal/mol, leave out the unit.

Answered examples (2):
- sequence_text: "SIKELAKELPGFQVSVEPDDPGQVKITIMVPDDPQQQKRFQNKIIELANDIQGEHGMPVTIEIQPVPPGDSA [r9_1099_TrROS]"
  folding stability dG unfold / kcal/mol: -0.238
- sequence_text: "SAGGSAGGSAGGFNIEVVPGEPGWVIKIEFPDHPITAFVDPEDGKLWIYNPDNGMIFPLSAGGSAGGSAGGS [r10_434_TrROS]"
  folding stability dG unfold / kcal/mol: 2.2

Ask: I have this sequence here, SDRIEIEIWRHPNWWMIKIKVRDDGEPVGTQSFPVDDGMDIEEIADNLLNRNPNYKVEITEIEPMPPPPGSA [r9_364_TrROS] , and I need its recorded folding stability dG unfold.
Reply: 2.86
